- Target system: Phosphatidylinositol 4,5-bisphosphate 3-kinase catalytic subunit alpha isoform (Homo sapiens)
- Sequence (P42336 whole entry, canonical isoform): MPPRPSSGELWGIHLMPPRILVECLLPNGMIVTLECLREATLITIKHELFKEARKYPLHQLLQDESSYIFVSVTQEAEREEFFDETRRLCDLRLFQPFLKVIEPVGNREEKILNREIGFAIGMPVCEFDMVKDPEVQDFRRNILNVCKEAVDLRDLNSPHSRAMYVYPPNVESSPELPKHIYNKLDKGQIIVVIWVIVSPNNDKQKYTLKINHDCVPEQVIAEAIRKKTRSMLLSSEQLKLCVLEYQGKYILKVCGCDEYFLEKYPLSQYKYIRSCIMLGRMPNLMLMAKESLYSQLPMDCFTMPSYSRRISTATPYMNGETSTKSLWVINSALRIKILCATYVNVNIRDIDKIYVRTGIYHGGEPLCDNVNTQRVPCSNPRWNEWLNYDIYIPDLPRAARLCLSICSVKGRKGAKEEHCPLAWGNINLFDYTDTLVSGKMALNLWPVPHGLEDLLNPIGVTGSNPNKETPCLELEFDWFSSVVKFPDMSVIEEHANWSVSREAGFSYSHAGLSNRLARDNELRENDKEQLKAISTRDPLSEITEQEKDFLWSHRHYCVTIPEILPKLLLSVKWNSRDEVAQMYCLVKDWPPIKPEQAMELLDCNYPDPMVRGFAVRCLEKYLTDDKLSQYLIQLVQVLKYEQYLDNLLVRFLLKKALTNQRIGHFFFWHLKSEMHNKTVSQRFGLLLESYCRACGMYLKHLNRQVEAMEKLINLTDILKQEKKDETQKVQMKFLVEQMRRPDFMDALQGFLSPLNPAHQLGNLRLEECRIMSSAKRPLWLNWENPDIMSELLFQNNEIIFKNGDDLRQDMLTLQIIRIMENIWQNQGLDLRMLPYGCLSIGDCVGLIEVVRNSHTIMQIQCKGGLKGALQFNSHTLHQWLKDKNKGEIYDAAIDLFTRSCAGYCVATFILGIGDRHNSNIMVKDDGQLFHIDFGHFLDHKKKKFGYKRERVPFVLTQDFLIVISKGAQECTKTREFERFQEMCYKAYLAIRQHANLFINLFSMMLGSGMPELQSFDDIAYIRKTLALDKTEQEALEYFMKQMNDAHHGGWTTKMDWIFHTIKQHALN
- Test name: Inhibition of PI3Kalpha (unknown origin) expressed in SF21 cells using phosphatidylinositol as substrate after 60 mins by Kinase-Glo assay
Exercise: for every item that follows, state its recorded pIC50.
Numbers only, as −log10 of the molar value.

[
  {
    "Entry smiles": "Cc1nc2ccccc2n1-c1nc(N2CCOCC2)nc(N2CCOCC2)n1",
    "pIC50": 6.54
  }
]

Inquiry: Identify measured pIC50 corresponding to COc1ccc2nc(C)n(-c3nc(N4CCOCC4)nc(N4CCOCC4)n3)c2c1
Reply text: 6.08

* * *

- Target system: Phosphatidylinositol 4,5-bisphosphate 3-kinase catalytic subunit beta isoform (Homo sapiens)
- Sequence (P42338 whole entry, canonical isoform): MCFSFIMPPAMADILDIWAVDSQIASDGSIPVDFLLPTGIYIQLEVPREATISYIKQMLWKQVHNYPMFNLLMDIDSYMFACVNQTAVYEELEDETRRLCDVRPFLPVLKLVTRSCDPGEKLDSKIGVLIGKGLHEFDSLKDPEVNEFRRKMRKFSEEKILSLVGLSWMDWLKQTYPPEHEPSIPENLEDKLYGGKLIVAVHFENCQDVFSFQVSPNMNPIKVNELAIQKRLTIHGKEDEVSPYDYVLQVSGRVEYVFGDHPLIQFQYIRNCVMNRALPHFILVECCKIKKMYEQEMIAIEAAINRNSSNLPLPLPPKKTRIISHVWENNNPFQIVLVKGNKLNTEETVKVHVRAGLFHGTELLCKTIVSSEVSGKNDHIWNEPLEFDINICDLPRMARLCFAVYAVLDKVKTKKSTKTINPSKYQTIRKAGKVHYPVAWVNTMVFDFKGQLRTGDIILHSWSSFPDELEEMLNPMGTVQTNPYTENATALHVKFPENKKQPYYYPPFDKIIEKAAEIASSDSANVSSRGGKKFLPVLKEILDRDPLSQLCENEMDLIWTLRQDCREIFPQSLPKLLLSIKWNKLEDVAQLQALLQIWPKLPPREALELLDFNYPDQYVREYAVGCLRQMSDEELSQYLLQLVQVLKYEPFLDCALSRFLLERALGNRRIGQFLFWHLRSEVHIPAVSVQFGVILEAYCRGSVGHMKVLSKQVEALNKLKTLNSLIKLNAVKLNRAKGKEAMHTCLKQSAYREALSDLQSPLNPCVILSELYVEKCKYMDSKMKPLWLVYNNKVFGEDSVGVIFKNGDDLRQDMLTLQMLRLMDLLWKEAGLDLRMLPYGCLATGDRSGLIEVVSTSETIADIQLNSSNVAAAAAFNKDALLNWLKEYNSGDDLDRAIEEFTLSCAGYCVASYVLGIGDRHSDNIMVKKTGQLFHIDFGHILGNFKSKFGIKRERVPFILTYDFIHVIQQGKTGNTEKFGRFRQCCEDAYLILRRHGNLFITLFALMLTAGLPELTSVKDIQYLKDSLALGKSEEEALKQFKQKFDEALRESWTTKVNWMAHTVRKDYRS
- Test name: Inhibition of PI3Kbeta (unknown origin) expressed in SF21 cells using phosphatidylinositol as substrate after 60 mins by Kinase-Glo assay
Would you mind telling me the reported pIC50 of each entry?
Numbers only, as −log10 of the molar value.

Below, each entry is followed by its recorded pIC50 result.
[
  {
    "Entry smiles": "Cc1nc2ccccc2n1-c1nc(N2CCOCC2)nc(N2CCOCC2)n1",
    "pIC50": 6.28
  },
  {
    "Entry smiles": "CC(C)c1nc2ccccc2n1-c1nc(N2CCOCC2)nc(N2CCOCC2)n1",
    "pIC50": 6.38
  },
  {
    "Entry smiles": "COc1ccc2nc(C(C)C)n(-c3nc(N4CCOCC4)nc(N4CCOCC4)n3)c2c1",
    "pIC50": 6.14
  },
  {
    "Entry smiles": "COc1ccc2nc(C(F)F)n(-c3nc(N4CCOCC4)nc(N4CCOCC4)n3)c2c1",
    "pIC50": 6.67
  }
]

Query compound follows.
Inquiry: Report pIC50, nothing else, for this compound: COc1ccc2nc(C)n(-c3nc(N4CCOCC4)nc(N4CCOCC4)n3)c2c1
Reply text: 5.75
